Target: Baculoviral IAP repeat-containing protein 2 (Homo sapiens, UniProt Q13490)
Sequence (Q13490 whole entry): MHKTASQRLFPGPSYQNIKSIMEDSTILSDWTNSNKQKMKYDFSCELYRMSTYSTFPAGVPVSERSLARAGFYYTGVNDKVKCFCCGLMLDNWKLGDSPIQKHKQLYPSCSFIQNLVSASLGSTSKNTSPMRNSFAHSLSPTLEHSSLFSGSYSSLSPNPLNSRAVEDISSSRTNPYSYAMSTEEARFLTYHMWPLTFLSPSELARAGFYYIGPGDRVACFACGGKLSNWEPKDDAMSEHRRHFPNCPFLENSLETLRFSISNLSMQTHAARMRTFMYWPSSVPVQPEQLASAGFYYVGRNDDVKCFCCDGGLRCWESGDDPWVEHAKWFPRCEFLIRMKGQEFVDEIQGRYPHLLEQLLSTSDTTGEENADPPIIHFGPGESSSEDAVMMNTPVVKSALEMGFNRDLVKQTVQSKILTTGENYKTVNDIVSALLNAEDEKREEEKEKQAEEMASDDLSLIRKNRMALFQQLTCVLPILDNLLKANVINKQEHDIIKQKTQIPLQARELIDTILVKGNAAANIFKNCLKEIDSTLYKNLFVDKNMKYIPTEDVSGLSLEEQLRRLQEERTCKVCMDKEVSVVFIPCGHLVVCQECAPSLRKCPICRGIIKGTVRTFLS
Experiment: Binding affinity to cIAP1 in human MDA-MB-231 cells assessed as induction of protein degradation after 1 hr by ELISA
Type: cell-based
Endpoint label: EC50 (nM)

CN[C@@H](C)C(=O)N[C@H](C(=O)N1CCC[C@H]1C(=O)N[C@H]1c2ccccc2C[C@H]1NC(=O)c1ccc(C(=O)N[C@@H]2Cc3ccccc3[C@@H]2NC(=O)[C@@H]2CCCN2C(=O)[C@@H](NC(=O)[C@H](C)NC)C2CCCCC2)cc1)C1CCCCC1; 124

(a) CN[C@@H](C)C(=O)N[C@H](C(=O)N1CCC[C@H]1C(=O)NC1(C(=O)NCC#CC#CCNC(=O)C2(NC(=O)[C@@H]3CCCN3C(=O)[C@@H](NC(=O)[C@H](C)NC)C3CCCCC3)Cc3ccccc3C2)Cc2ccccc2C1)C1CCCCC1
(b) CN[C@@H](C)C(=O)N[C@H](C(=O)N1CSC[C@H]1C(=O)N[C@H]1c2ccccc2C[C@H]1OCC#CC#CCO[C@@H]1Cc2ccccc2[C@@H]1NC(=O)[C@@H]1CSCN1C(=O)[C@@H](NC(=O)[C@H](C)NC)C(C)(C)C)C(C)(C)C
Query string: Select one. Lower EC50: a or b When you have decided, please share the label of that item.
Result string: b
(b: 0.5 nM, a: 5 nM)

(A) C#CCO[C@@H]1CCc2ccccc2[C@@H]1NC(=O)[C@@H]1CCCN1C(=O)[C@@H](NC(=O)[C@H](C)NC)C(C)(C)C
(B) C#CCO[C@H]1CCc2ccccc2[C@@H]1NC(=O)[C@@H]1CCCN1C(=O)[C@@H](NC(=O)[C@H](C)NC)C(C)(C)C
(C) CN[C@@H](C)C(=O)N[C@H](C(=O)N1CSC2(CC2)[C@H]1C(=O)N[C@H]1c2ccccc2C[C@H]1OCC#CC#CCO[C@@H]1Cc2ccccc2[C@@H]1NC(=O)[C@H]1N(C(=O)[C@@H](NC(=O)[C@H](C)NC)C2CCCCC2)CSC12CC2)C1CCCCC1
Query string: Arrange the 3 entries by EC50 so the values rise. Quick reminder: the answer is the labels in the order asked.
Result string: C, A, B

(1) CN[C@@H](C)C(=O)N[C@H](C(=O)N1CCC[C@H]1C(=O)N[C@H]1c2ccccc2C[C@@H]1OCC#CC#CCO[C@H]1Cc2ccccc2[C@@H]1NC(=O)[C@@H]1CCCN1C(=O)[C@@H](NC(=O)[C@H](C)NC)C1CCCCC1)C1CCCCC1
(2) CN[C@@H](C)C(=O)N[C@H](C(=O)N1CCC[C@H]1C(=O)N[C@H]1c2ccccc2C[C@H]1NC(=O)CCCCCCCCC(=O)N[C@@H]1Cc2ccccc2[C@@H]1NC(=O)[C@@H]1CCCN1C(=O)[C@@H](NC(=O)[C@H](C)NC)C1CCCCC1)C1CCCCC1
Query string: Select one. Lower EC50: 1 or 2 When you have decided, please share the label of that item.
Result string: 1

---

Assay: AUC in Han Wistar rat at 0.8 mg/kg, iv by LC-MS/MS analysis
Format: ADME, organism-based
Parameters: dose 0.8 mg/kg, route intravenous
Details: plasma
Endpoint label: AUC (ng·h/mL)
Reply with just the number (in ng·h/mL).

Query string: Kindly indicate its recorded AUC. Item: "CN[C@@H](C)C(=O)N[C@H](C(=O)N1CCC[C@H]1C(=O)N[C@H]1c2ccccc2C[C@H]1OCCCCCCO[C@@H]1Cc2ccccc2[C@@H]1NC(=O)[C@@H]1CCCN1C(=O)[C@@H](NC(=O)[C@H](C)NC)C1CCCCC1)C1CCCCC1"
Result string: 262
